Documented pKd across a set of binders
Target: S. aureus LukF (Staphylococcus aureus)
Assay: method not stated at Table 8; BLI (Octet) is described in Example 4
In textbook form, pKd equals minus log to base ten of the concentration in mol/L.

{"columns": ["binder", "pKd"],
 "data": [
  ["SAN481-SYT-YTE (antibody, V domains shown, also called QD5) VH: QLQLVESGGGAVQPGRSLKLSCAASGFTFSTYAMHWVRQAPGRGLEWVAVTSFDGSNEYYIDSVKGRFTISRDNTKNTLYLQMTGLRVEDTALYFCARDEYTGGWYSVGYWGQGTLVTVSS VL: QSVLTQPPSASGTPGQRVTISCSGSSYNIGSNYVYWYQQFPGTAPKLLISRSIQRPSGVPDRFSGSKSVTSASLAISGLRSEDEADYYCAAWDDSLRAWVFGGGTKLTVLG", 10.00],
  ["SAN481-TF-YTE (antibody, V domains shown, also called QD4; SAN481-VH28T100E-YTE) VH: QLQLVESGGGAVQPGRSLKLSCAASGFTFSTYAMHWVRQAPGRGLEWVAVTSFDGSNEYYIDSVKGRFTISRDNTKNTLYLQMTGLRVEDTALYFCARDEYTGGFYSVGYWGQGTLVTVSS VL: QSVLTQPPSASGTPGQRVTISCSGNSYNIGSNSVYWYQQFPGTAPKLLISRSIQRPSGVPDRFSGSKSVTSASLAISGLRSEDEADYYCAAWDDSLRAWVFGGGTKLTVLG", 8.92]
]}

Below: the item to evaluate.
So, SAN481-SY-YTE (antibody, V domains shown, also called QD2; SAN481VL26S32Y-YTE) VH: QLQLVESGGGAVQPGRSLKLSCAASGFNFSTYAMHWVRQAPGRGLEWVAVTSFDGSNEYYIDSVKGRFTISRDNTKNTLYLQMTGLRVEDTALYFCARDEYTGGWYSVGYWGQGTLVTVSS VL: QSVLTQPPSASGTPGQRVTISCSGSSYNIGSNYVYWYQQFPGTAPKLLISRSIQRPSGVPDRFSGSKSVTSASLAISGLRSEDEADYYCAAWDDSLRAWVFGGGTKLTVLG ? Its pKd was 10.00

The reported measurements were obtained from patent US20200109190A1.
